Hello, the source for this data is patent US20250257095A1, in case you need it.

Experiment: Plasma stability test (incubation in plasma at 37° C., LC-MS/MS)
Assay type: in vitro ADME
Conditions: 2 h later, read-out: compound degraded in plasma
recordedEndpoint: metabolised at 2 h, 5 μg/mL

molecule: CCN1C(=O)CC(SC[C@@H](NC(=O)[C@@H](CCCCNC(=O)OC(C)(C)C)NC(=O)OCc2ccccc2)C(=O)O)C1=O (some centres unmarked)
metabolised at 2 h, 5 μg/mL: ~1.5%

Lab note: next molecule to report on.
Incoming: Query (molecule): CCN1C(=O)CC(SC[C@@H](NC(=O)[C@@H](Cc2ccccc2)NC(=O)OC(C)(C)C)C(=O)O)C1=O (some centres unmarked) ; field requested: metabolised at 2 h, 5 μg/mL
Outgoing: ~14%
